Origin of values: ChEMBL document CHEMBL5727360

Molecular target: Apoptosis regulator Bcl-2 (Homo sapiens, UniProt P10415)
Sequence (P10415 whole entry): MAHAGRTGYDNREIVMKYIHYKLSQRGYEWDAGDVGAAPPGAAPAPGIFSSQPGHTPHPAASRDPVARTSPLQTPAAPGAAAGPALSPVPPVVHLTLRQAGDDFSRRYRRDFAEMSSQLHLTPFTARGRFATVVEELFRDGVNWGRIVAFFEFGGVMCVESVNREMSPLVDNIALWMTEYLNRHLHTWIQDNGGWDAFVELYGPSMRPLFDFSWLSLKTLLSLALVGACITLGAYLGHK
Assay: Bcl-2 Competition Binding (Fluorescence Polarization) Assay: The fluorescence-labeled 23 amino acid peptide BH3 was purchased from CalBiochem ([…], SEQ ID NO: 1). An unbound Fluorescein labeled BH3 peptide emits random light with respect to the plane of polarization plane of excited light, resulting in a lower polarization degree (mP) value. When the peptide is bound to Bcl-2, the complex tumble slower and the emitted light can have a higher level of polarization, resulting in a higher mP value. This binding assay was performed in 96-well plate and with each assay contained 15 and 30 nM of labeled peptide and purified Bcl-2 protein (purchased from R&D Systems, Inc). The assay buffer contained 20 mM Hepes (pH 7.0), 50 mM KCl, 5 mM MgCl2, 20 mM Na2MoO4, 0.1 mg/ml Bovine Gamma Globulin and 0.01% NP40. Compounds were diluted in DMSO and added to the final assay with concentration range from 20 uM to 2 nM. The polarization degree (mP) value was determined by BioTek Synergy II with background subtraction after 3 hours of incubation at room temperature. IC50 was calculated using Prism software with sigmoidal dose-response curve fitting. ABT-737 was used as reference compound. Such assays, carried out with a range of doses of test compounds, allow the determination of an approximate IC50 value.
pIC50: −log10 of the molar value.

structure-notation	measured-on	pIC50
CC1(C)CCC(CN2CCN(c3ccc(C(=O)NS(=O)(=O)c4ccc(NC5CCN(C6CCOCC6)CC5)c([N+](=O)[O-])c4)c(-n4ncc5nc6[nH]ccc6cc54)c3)CC2)=C(c2ccc(Cl)cc2)C1	Apoptosis regulator Bcl-2 (Homo sapiens, UniProt P10415)	> 8.00
CN1CCC(F)(COc2ccc(S(=O)(=O)NC(=O)c3ccc(N4CCN(CC5=C(c6ccc(Cl)cc6)CC(C)(C)CC5)CC4)cc3-n3ncc4nc5[nH]ccc5cc43)cc2[N+](=O)[O-])CC1	Apoptosis regulator Bcl-2 (Homo sapiens, UniProt P10415)	> 8.00
CC1(C)CCC(CN2CCN(c3ccc(C(=O)NS(=O)(=O)c4ccc(NCCCN5CCOCC5)c([N+](=O)[O-])c4)c(-n4ncc5nc6[nH]ccc6cc54)c3)CC2)=C(c2ccc(Cl)cc2)C1	Apoptosis regulator Bcl-2 (Homo sapiens, UniProt P10415)	> 8.00
